Hey, just so you know, these numbers are from paper PMC5761851.

Target: IKKε (Homo sapiens, UniProt Q14164)
Construct: purchased Eurofins Pharma Discovery Services (KinaseProfiler; Cerep BioPrint panel)
Sequence (Q14164 1-716): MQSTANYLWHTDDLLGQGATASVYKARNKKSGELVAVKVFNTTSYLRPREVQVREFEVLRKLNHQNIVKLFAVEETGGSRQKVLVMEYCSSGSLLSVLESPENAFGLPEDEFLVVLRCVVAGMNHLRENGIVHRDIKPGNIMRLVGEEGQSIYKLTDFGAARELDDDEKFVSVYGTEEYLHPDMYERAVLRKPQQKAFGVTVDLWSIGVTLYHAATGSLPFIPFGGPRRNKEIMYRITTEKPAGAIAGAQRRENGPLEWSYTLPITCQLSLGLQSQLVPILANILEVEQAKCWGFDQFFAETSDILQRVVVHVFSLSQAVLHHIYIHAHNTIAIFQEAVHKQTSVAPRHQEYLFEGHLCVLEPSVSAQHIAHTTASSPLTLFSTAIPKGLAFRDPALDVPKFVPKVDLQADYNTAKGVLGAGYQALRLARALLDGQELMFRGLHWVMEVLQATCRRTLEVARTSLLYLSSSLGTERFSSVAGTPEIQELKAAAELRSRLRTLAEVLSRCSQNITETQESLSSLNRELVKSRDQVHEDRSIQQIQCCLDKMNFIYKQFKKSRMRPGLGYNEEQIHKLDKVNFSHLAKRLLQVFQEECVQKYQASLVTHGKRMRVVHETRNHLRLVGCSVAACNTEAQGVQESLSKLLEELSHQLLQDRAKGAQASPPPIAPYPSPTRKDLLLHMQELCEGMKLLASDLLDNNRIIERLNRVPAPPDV
Test: kinase selectivity panel
Assay type: biochemical
Details: read-out: percentage of control activity (POC), IKKε
readout_label: remaining activity at 10 µM (%)
The reply should be a number in %, with the unit left off.

Illustrative cases are given below, each with its answer.
| compound | number |
| --- | --- |
| Cn1cc(-c2cccc(-c3nc(C(=O)NC4C5CC6CC4CC(O)(C6)C5)c(N)nc3N)c2)cn1 (centres unmarked) [compound 4] | 96 |
| CS(=O)(=O)N1CCN(c2ccc(Nc3ncc(C(N)=O)c(NC4CC4)n3)cc2)CC1 [compound 5] | 0 |
| Cc1ccc(C(=O)NCC2CC2)cc1-c1ccc2c(c1)NC(=O)C21CCCC1 [compound 3] | 102 |
| COc1c(NC(=O)c2ccc(C)c(-c3nnc4c(NCC(C)(C)C)nccn34)c2)cc(C(C)(C)C)cc1NS(C)(=O)=O [compound 7, reference compound] | 100 |

Lookup: Test system IKKε (Homo sapiens, UniProt Q14164); read-out remaining activity at 10 µM; what value for CC(C)(C)N1CCC(c2cc(-c3ccc(F)cc3Cl)c3cc[n+]([O-])c(-c4c(Cl)cccc4Cl)c3n2)CC1 [compound 2] ?
Found: 101

====

biological target: CK1γ1 (Homo sapiens, UniProt Q9HCP0); construct: purchased Eurofins Pharma Discovery Services (KinaseProfiler; Cerep BioPrint panel); assay: kinase selectivity panel; format: biochemical; details: read-out: percentage of control activity (POC), CK1γ1
Sequence (Q9HCP0 whole entry): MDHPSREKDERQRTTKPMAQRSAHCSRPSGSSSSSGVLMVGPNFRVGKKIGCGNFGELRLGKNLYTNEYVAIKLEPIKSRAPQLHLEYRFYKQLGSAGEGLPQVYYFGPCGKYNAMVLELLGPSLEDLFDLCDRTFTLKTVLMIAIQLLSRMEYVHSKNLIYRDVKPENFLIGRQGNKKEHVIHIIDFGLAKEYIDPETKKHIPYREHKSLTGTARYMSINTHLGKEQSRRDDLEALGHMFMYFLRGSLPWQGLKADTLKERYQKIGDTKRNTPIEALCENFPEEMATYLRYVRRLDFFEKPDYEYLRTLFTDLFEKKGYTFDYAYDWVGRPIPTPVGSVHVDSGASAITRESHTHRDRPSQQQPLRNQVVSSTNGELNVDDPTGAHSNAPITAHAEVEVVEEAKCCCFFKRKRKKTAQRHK
Measured remaining activity at 10 µM accompanies every entry in the list below.

Illustrative cases are given below, each with its answer.
| compound | remaining activity at 10 µM |
| --- | --- |
| COc1c(NC(=O)c2ccc(C)c(-c3nnc4c(NCC(C)(C)C)nccn34)c2)cc(C(C)(C)C)cc1NS(C)(=O)=O [compound 7, reference compound] | 98% |
| CS(=O)(=O)N1CCN(c2ccc(Nc3ncc(C(N)=O)c(NC4CC4)n3)cc2)CC1 [compound 5] | 25% |
| Cn1cc(-c2cccc(-c3nc(C(=O)NC4C5CC6CC4CC(O)(C6)C5)c(N)nc3N)c2)cn1 (centres unmarked) [compound 4] | 89% |
| CC(C)(C)N1CCC(c2cc(-c3ccc(F)cc3Cl)c3cc[n+]([O-])c(-c4c(Cl)cccc4Cl)c3n2)CC1 [compound 2] | 101% |

From here, focus on the item given below.
Lookup: Look at this compound and give its reported remaining activity at 10 µM. Cc1ccc(C(=O)NCC2CC2)cc1-c1ccc2c(c1)NC(=O)C21CCCC1 [compound 3]
Found: 98%

====

Measured remaining activity at 10 µM accompanies every entry in the list below.
target: ALK (Homo sapiens); construct: purchased Eurofins Pharma Discovery Services (KinaseProfiler; Cerep BioPrint panel); assay: kinase selectivity panel; assay type: biochemical; settings: read-out: percentage of control activity (POC), ALK
Sequence (Q9UM73 19-1620): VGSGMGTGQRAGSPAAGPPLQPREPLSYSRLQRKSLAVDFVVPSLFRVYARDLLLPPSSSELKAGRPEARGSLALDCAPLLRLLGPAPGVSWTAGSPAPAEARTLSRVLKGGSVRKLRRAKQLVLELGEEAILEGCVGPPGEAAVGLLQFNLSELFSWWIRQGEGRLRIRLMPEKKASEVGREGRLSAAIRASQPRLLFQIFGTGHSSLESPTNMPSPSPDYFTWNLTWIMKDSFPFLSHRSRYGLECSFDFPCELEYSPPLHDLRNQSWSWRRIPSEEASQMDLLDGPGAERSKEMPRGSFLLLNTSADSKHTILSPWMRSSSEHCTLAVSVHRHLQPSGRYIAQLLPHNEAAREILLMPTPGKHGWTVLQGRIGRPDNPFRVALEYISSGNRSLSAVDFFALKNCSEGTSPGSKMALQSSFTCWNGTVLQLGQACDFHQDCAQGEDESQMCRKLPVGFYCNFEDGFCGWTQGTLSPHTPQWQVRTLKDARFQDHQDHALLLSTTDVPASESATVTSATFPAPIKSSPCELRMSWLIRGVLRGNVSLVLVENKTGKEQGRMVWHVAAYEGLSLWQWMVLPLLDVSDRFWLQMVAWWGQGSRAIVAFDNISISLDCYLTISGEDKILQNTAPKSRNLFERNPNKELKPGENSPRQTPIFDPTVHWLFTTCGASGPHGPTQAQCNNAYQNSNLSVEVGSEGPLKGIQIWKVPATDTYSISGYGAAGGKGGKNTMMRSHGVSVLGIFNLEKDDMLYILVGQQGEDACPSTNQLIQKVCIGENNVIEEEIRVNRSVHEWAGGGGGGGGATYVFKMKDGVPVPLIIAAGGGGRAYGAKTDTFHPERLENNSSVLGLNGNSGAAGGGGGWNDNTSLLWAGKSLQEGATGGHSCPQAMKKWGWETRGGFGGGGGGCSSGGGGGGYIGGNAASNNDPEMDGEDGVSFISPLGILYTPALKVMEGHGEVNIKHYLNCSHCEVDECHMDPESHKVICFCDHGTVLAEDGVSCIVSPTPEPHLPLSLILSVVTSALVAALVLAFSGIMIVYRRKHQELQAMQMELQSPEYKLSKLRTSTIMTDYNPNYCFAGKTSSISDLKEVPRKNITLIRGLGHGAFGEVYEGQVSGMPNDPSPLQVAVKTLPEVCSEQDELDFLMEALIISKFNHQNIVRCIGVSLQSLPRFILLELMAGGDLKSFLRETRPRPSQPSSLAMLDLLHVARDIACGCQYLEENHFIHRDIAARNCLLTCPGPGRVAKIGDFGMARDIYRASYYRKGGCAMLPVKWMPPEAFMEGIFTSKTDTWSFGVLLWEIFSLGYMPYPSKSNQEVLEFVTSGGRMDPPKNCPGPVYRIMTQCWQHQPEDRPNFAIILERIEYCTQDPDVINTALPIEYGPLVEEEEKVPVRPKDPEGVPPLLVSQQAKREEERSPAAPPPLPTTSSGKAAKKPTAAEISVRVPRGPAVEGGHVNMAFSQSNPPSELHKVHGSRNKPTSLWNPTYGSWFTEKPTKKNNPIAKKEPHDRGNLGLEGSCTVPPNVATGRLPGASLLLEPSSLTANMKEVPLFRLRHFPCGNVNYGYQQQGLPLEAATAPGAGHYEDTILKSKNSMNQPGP
The reply should be a number in %, with the unit left off.

Illustrative cases are given below, each with its answer.
| compound | remaining activity at 10 µM / % |
| --- | --- |
| CC(C)(C)N1CCC(c2cc(-c3ccc(F)cc3Cl)c3cc[n+]([O-])c(-c4c(Cl)cccc4Cl)c3n2)CC1 | 89 |
| Cn1cc(-c2cccc(-c3nc(C(=O)NC4C5CC6CC4CC(O)(C6)C5)c(N)nc3N)c2)cn1 (centres unmarked) | 64 |

Lookup: Look at this compound and give its reported remaining activity at 10 µM. `CS(=O)(=O)N1CCN(c2ccc(Nc3ncc(C(N)=O)c(NC4CC4)n3)cc2)CC1`
Found: 62

Lookup: Same question, `Cc1ccc(C(=O)NCC2CC2)cc1-c1ccc2c(c1)NC(=O)C21CCCC1` this time
Found: 77

Lookup: Same question, COc1c(NC(=O)c2ccc(C)c(-c3nnc4c(NCC(C)(C)C)nccn34)c2)cc(C(C)(C)C)cc1NS(C)(=O)=O [compound 7, reference compound] this time
Found: 146

====

molecular target: Flt4 (Homo sapiens); construct: Eurofins Pharma Discovery Services (contract assay service); assay: kinase selectivity panel; format: biochemical; settings: 10 μM; read-out: percentage of control activity (POC), Flt4
Sequence (P35916 25-1363, species assumed): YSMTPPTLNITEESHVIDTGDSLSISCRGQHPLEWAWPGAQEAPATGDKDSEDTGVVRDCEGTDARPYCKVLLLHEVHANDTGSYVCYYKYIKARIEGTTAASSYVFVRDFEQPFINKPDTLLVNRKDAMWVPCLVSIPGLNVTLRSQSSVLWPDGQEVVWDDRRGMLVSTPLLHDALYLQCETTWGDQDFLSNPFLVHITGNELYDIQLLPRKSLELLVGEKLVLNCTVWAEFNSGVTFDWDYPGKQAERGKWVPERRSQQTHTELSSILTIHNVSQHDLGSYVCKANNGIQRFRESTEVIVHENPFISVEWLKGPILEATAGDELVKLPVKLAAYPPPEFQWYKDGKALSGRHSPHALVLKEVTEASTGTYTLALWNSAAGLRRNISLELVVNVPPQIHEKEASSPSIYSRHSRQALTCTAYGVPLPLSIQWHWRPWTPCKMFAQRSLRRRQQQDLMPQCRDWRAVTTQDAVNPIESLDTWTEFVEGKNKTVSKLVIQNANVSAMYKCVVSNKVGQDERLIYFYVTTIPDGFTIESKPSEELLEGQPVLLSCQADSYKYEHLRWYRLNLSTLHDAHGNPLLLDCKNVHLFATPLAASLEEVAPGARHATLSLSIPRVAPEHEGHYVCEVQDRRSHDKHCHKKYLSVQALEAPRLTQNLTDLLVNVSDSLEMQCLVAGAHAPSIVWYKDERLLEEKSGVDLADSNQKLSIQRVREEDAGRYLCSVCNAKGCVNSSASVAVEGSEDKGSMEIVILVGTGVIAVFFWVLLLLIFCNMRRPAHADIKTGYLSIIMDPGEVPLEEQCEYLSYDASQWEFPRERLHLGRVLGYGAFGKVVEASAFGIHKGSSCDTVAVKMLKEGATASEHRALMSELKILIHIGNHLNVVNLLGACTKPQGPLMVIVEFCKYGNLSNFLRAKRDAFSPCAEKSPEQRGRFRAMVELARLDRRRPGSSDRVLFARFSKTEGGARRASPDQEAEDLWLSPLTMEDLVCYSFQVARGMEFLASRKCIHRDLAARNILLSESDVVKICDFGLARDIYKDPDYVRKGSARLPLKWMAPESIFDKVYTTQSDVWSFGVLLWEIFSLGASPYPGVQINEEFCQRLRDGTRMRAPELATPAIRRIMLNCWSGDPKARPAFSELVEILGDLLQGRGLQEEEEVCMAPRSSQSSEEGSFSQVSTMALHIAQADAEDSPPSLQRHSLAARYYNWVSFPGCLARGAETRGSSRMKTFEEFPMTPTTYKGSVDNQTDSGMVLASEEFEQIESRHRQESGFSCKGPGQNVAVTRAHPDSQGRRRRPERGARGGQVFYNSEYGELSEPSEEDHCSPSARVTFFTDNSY
readout_label: remaining activity at 10 µM (%)
The reply should be a number in %, with the unit left off.

Illustrative cases are given below, each with its answer.
| molecule | remaining activity at 10 µM [%] |
| --- | --- |
| Cn1cc(-c2cccc(-c3nc(C(=O)NC4C5CC6CC4CC(O)(C6)C5)c(N)nc3N)c2)cn1 (centres unmarked) | 20 |
| COc1c(NC(=O)c2ccc(C)c(-c3nnc4c(NCC(C)(C)C)nccn34)c2)cc(C(C)(C)C)cc1NS(C)(=O)=O [compound 7, reference compound] | 88 |
| Cc1ccc(C(=O)NCC2CC2)cc1-c1ccc2c(c1)NC(=O)C21CCCC1 | 78 |
| CC(C)(C)N1CCC(c2cc(-c3ccc(F)cc3Cl)c3cc[n+]([O-])c(-c4c(Cl)cccc4Cl)c3n2)CC1 | 108 |

From here, focus on the item given below.
Lookup: Test system Flt4 (Homo sapiens); read-out remaining activity at 10 µM; what value for `CS(=O)(=O)N1CCN(c2ccc(Nc3ncc(C(N)=O)c(NC4CC4)n3)cc2)CC1` ?
Found: 0

====

Measured remaining activity at 10 µM accompanies every entry in the list below.
target: PI3K (p120g) (Homo sapiens, UniProt P48736); construct: Eurofins Pharma Discovery Services (contract assay service); assay: kinase selectivity panel; format: biochemical; settings: 10 μM; read-out: percentage of control activity (POC), PI3K (p120g)
Sequence (P48736 whole entry): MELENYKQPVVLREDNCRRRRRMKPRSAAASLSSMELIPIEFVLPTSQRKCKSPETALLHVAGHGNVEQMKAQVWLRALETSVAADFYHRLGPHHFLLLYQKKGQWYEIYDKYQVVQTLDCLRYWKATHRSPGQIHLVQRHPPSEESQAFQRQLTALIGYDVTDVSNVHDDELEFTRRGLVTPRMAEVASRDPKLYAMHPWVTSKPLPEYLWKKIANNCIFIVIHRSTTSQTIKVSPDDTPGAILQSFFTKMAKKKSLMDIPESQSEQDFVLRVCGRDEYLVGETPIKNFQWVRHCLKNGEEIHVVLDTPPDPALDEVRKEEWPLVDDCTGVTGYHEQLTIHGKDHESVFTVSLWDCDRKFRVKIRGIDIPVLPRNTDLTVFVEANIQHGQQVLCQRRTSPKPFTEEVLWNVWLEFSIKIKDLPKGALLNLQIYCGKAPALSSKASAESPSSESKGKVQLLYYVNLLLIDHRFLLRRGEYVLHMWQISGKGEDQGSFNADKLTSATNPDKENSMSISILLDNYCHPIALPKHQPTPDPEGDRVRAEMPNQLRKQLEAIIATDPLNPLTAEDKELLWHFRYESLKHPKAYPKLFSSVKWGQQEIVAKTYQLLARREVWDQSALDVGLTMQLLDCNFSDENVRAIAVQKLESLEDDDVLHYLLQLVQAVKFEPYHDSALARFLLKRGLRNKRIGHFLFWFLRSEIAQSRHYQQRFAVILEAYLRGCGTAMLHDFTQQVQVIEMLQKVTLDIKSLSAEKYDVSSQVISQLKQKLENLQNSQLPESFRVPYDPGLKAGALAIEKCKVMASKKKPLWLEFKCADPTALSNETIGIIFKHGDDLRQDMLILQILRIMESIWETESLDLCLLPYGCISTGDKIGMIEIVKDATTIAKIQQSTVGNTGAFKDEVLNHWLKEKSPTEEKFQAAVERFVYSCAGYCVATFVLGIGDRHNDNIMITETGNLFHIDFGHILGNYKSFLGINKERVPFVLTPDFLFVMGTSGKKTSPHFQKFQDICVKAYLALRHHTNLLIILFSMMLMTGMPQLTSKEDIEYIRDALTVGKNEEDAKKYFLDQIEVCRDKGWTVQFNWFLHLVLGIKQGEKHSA

Illustrative cases are given below, each with its answer.
| molecule | measured_target | remaining activity at 10 µM |
| --- | --- | --- |
| COc1c(NC(=O)c2ccc(C)c(-c3nnc4c(NCC(C)(C)C)nccn34)c2)cc(C(C)(C)C)cc1NS(C)(=O)=O [compound 7, reference compound] | PI3K (p120g) (Homo sapiens, UniProt P48736) | 86% |
| Cc1ccc(C(=O)NCC2CC2)cc1-c1ccc2c(c1)NC(=O)C21CCCC1 [compound 3] | PI3K (p120g) (Homo sapiens, UniProt P48736) | 85% |
| CC(C)(C)N1CCC(c2cc(-c3ccc(F)cc3Cl)c3cc[n+]([O-])c(-c4c(Cl)cccc4Cl)c3n2)CC1 [compound 2] | PI3K (p120g) (Homo sapiens, UniProt P48736) | 92% |
| CS(=O)(=O)N1CCN(c2ccc(Nc3ncc(C(N)=O)c(NC4CC4)n3)cc2)CC1 [compound 5] | PI3K (p120g) (Homo sapiens, UniProt P48736) | 86% |

Lookup: Look at this molecule and give its reported remaining activity at 10 µM. Cn1cc(-c2cccc(-c3nc(C(=O)NC4C5CC6CC4CC(O)(C6)C5)c(N)nc3N)c2)cn1 (centres unmarked) [compound 4]
Found: 33%

====

biological target: SAPK2b (Homo sapiens); construct: purchased Eurofins Pharma Discovery Services (KinaseProfiler; Cerep BioPrint panel); assay: kinase selectivity panel; type: biochemical; conditions: read-out: percentage of control activity (POC), SAPK2b
Sequence (Q15759 whole entry): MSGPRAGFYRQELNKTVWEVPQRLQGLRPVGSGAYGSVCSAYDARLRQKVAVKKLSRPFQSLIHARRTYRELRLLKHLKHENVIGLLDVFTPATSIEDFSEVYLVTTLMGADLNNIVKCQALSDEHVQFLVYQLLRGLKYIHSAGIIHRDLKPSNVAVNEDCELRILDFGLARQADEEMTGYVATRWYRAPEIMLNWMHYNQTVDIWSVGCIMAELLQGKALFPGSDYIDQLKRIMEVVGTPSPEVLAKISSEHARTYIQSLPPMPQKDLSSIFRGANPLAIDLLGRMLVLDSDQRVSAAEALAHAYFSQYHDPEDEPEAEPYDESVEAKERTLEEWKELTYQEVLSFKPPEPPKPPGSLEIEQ
Measured remaining activity at 10 µM accompanies every entry in the list below.
The reply should be a number in %, with the unit left off.

Illustrative cases are given below, each with its answer.
| compound | readout_label | number |
| --- | --- | --- |
| CS(=O)(=O)N1CCN(c2ccc(Nc3ncc(C(N)=O)c(NC4CC4)n3)cc2)CC1 | remaining activity at 10 µM | 82 |
| Cc1ccc(C(=O)NCC2CC2)cc1-c1ccc2c(c1)NC(=O)C21CCCC1 | remaining activity at 10 µM | -6 |
| COc1c(NC(=O)c2ccc(C)c(-c3nnc4c(NCC(C)(C)C)nccn34)c2)cc(C(C)(C)C)cc1NS(C)(=O)=O [compound 7, reference compound] | remaining activity at 10 µM | -4 |
| Cn1cc(-c2cccc(-c3nc(C(=O)NC4C5CC6CC4CC(O)(C6)C5)c(N)nc3N)c2)cn1 (centres unmarked) | remaining activity at 10 µM | 99 |

From here, focus on the item given below.
Lookup: Test system SAPK2b (Homo sapiens); read-out remaining activity at 10 µM; what value for `CC(C)(C)N1CCC(c2cc(-c3ccc(F)cc3Cl)c3cc[n+]([O-])c(-c4c(Cl)cccc4Cl)c3n2)CC1` ?
Found: -5
